Taken from the supplement of paper PMC3334620.

- TARGET DESC: Ste12 (UniProt P13574)
- Sequence (P13574 whole entry): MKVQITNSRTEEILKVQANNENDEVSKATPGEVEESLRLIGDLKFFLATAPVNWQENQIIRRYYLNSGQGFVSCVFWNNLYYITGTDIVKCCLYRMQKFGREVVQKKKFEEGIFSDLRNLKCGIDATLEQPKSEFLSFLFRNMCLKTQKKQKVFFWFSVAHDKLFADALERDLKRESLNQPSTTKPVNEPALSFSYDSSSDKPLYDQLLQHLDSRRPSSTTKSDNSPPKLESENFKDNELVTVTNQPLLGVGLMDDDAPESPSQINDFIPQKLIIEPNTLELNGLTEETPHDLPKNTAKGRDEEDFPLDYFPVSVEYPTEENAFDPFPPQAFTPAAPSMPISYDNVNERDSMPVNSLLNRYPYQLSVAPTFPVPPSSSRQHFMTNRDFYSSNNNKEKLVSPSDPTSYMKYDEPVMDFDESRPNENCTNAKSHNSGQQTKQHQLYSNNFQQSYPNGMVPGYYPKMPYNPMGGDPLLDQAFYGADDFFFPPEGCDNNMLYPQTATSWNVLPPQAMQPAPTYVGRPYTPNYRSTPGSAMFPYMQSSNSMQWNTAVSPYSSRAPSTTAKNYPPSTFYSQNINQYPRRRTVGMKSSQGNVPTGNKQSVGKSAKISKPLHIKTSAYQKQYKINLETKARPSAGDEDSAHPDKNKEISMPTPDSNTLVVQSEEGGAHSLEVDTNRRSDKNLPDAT
- ASSAY NAME: PBM E-score (8-mer binding enrichment) (E-score (-0.5 to 0.5)); higher = stronger / more preferred TF binding
- COND: protein concentration: 200 nM; construct: GST-DNA-binding domain
Whole data set: some 33,000 sequences, median “E-score (-0.5 to 0.5)” near -0.01, cut for the highest 2% near 0.26. Many of the other results were omitted from the sample, so the highest values are more common in it than they were.
Give PBM E-score for every item shown.
# output: bare number, no unit

// fetch Ste12 (UniProt P13574) PBM E-score for AACATAAG
0.289

Now give it for ACCCATCC too.
0.00204

Now give it for AGTAAAAC too.
0.168

Now give it for ACTAAAAT too.
0.27

Now give it for CCGTTTCG too.
0.164

Now give it for AAGAGTTG too.
-0.149

Now give it for AAAGTCGC too.
0.282

Now give it for ATCTATGC too.
-0.0236

Now give it for AAGTTGCA too.
-0.0946

Now give it for ACTAAAAA too.
0.203

Now give it for ACGTGAAT too.
0.0319

Now give it for GAATAATC too.
0.00357

Now give it for AAGTTGAA too.
0.134

Now give it for AGTCTGCA too.
-0.122

Now give it for AGAAGCAA too.
0.153

Now give it for ATTAAAGA too.
0.0703

Now give it for ATCCTTTG too.
0.0895

Now give it for CTAGTTGA too.
0.175

Now give it for AAAGTCGT too.
-0.0472

Now give it for AAATAATC too.
0.171

Now give it for GCCGCCCA too.
0.0226

Now give it for AACGTCCG too.
-0.102

Now give it for GATCCCCA too.
0.0544

Now give it for GCCGCCGC too.
-0.0603

Now give it for CGATCTTC too.
-0.0861

Now give it for ATGTAATA too.
0.217

Now give it for CCTCTACG too.
-0.283

Now give it for ATTAAACC too.
0.156

Now give it for CGCCCACA too.
0.197

Now give it for ATTTTGTG too.
0.281

Now give it for CTTAAAAG too.
-0.0909

Now give it for TCTTCTCA too.
0.019

Now give it for ATTAAAAG too.
0.137

Now give it for ATTTTGTA too.
0.16

Now give it for CACATAAG too.
0.044

Now give it for ATTTTGTC too.
0.114

Now give it for CCGTTTCA too.
0.46

Now give it for GCCGCCCC too.
0.307

Now give it for ATCATAAG too.
0.0492

Now give it for ACATCGAA too.
0.0463

Now give it for CAAGTCGC too.
-0.3

Now give it for CCGTTTCC too.
0.139

Now give it for ATTAAAAA too.
0.295

Now give it for CTTAAAAC too.
0.352

Now give it for AAGAAGAA too.
0.123

Now give it for AAATAATA too.
0.257

###

Give PBM E-score for every item shown.
- TARGET DESC: Ste12 (UniProt P13574)
- ASSAY NAME: PBM E-score (8-mer binding enrichment) (E-score (-0.5 to 0.5)); higher = stronger / more preferred TF binding
- COND: protein concentration: 200 nM; construct: GST-DNA-binding domain
Whole data set: some 33,000 sequences, median “E-score (-0.5 to 0.5)” near -0.01, cut for the highest 2% near 0.26. Shown is part of a subset that was picked to be rich in the highest values.
# output: bare number, no unit

Which PBM E-score value belongs to GGGACACA ?
0.17

Now give it for AAACTTTA too.
0.294

Now give it for AAACTGTT too.
0.162

Now give it for AGTTTCAT too.
0.428

Now give it for CTATGATA too.
-0.0247

Now give it for AGTTTCAG too.
0.464

Now give it for CACACCAG too.
0.0883

Now give it for GGCAATAC too.
0.0406

Now give it for AAATGATT too.
0.197

Now give it for TAATGAGA too.
0.168

Now give it for CTGGCATC too.
-0.283

Now give it for ACTTGAAA too.
0.314

Now give it for AACAAGTA too.
0.00602

Now give it for AACAAATG too.
0.176

Now give it for GTATGATA too.
0.0429

Now give it for AAGAAAAA too.
0.158

Now give it for AATTAGGA too.
0.145

Now give it for AAGAAAAG too.
0.302

Now give it for AACAAATT too.
0.268

Now give it for TGCCTGAA too.
-0.0642

Now give it for AAATGATC too.
-0.0582

Now give it for ATTTTTGC too.
0.236

Now give it for TCATTACA too.
0.18

Now give it for ACTTGAAT too.
0.0108

Now give it for CAACTTAA too.
0.0143

Now give it for CAACTTTA too.
0.161

Now give it for ATCAGGGG too.
-0.128

Now give it for CCTAGAGC too.
-0.189

Now give it for AGGCGAAG too.
-0.178

Now give it for GTTCCGAA too.
0.137

Now give it for ACTTGAAG too.
0.119

Now give it for GACCAGGA too.
-0.183

Now give it for GCTTGAAA too.
0.198

Now give it for GTCACTAA too.
0.0793

Now give it for AAACTGTA too.
0.135

Now give it for GGCGAGGA too.
-0.178

Now give it for GGCTCACC too.
-0.244

Now give it for ATAAGCAA too.
0.148

Now give it for AGACCACA too.
-0.0546

Now give it for ATTCCCTG too.
0.0875

Now give it for CGTTTCCC too.
0.165

Now give it for CCTAATGA too.
0.13

Now give it for AAACTTTG too.
0.217

Now give it for AAGAAAAC too.
0.275

Now give it for TACAAATA too.
0.218

Now give it for TATTGGAA too.
-0.00217

###

- TARGET DESC: Ste12 (UniProt P13574)
- ASSAY NAME: PBM E-score (8-mer binding enrichment) (E-score (-0.5 to 0.5)); higher = stronger / more preferred TF binding
- COND: protein concentration: 200 nM; construct: GST-DNA-binding domain
Whole data set: some 33,000 sequences, median “E-score (-0.5 to 0.5)” near -0.01, cut for the highest 2% near 0.26. Shown is part of a subset that was picked to be rich in the highest values.
READOUT KIND: PBM E-score
# output: bare number, no unit

Which PBM E-score value belongs to GCGGTTTA ?
0.13

Now give it for ATTTCGAA too.
0.253

Now give it for ATTTCATA too.
0.124

Now give it for GTTTCGAA too.
0.325

Now give it for ATATATAC too.
0.271

Now give it for ATGAGAAC too.
0.118

Now give it for ATATAAAC too.
0.161

Now give it for CAATCGAA too.
-0.021

Now give it for AGGGTTTA too.
0.00108

Now give it for TTATATAA too.
0.176

Now give it for GAATCGAA too.
0.296

Now give it for CGGGTTTA too.
0.304

Now give it for TCATAAAA too.
0.231

Now give it for ATTTCACG too.
0.122

Now give it for CTTTCGAA too.
0.0433

Now give it for ATAAAAGC too.
-0.00425

Now give it for CGGCGAGA too.
-0.167

Now give it for GTTTCATA too.
0.481

Now give it for CGACCTGC too.
-0.0774

Now give it for CTATATAC too.
0.162

Now give it for ATATATAA too.
0.273

Now give it for GCCCCGAC too.
-0.135

###

- TARGET DESC: Ste12 (UniProt P13574)
- ASSAY NAME: PBM E-score (8-mer binding enrichment) (E-score (-0.5 to 0.5)); higher = stronger / more preferred TF binding
- COND: protein concentration: 200 nM; construct: GST-DNA-binding domain
Whole data set: some 33,000 sequences, median “E-score (-0.5 to 0.5)” near -0.01, cut for the highest 2% near 0.26. Only a selection was taken, and the highest values are over-represented in it overall.
If the reported PBM E-score equals or exceeds 0.2, assign True. If not, assign False.

State whether the measured PBM E-score reaches 0.2, counting equality as reaching it, for CCAAACGA
False

Now give it for ATGCGATG too.
False

Now give it for ATGACATA too.
True

Now give it for AAAAACGG too.
False

Now give it for GCAAAGCA too.
False

Now give it for AGAAACGA too.
True

Now give it for AGAACTCA too.
False

Now give it for ATCATAAA too.
False

Now give it for ACAAAAAT too.
True

Now give it for ACAAAAAA too.
True

Now give it for CAAAACGA too.
True

Now give it for TTGATAAA too.
True

Now give it for GAGCGAGC too.
False

Now give it for CCAAGAAC too.
False

Now give it for CCTAGAAA too.
False

Now give it for TCAAAAAA too.
True

Now give it for AAAAAGCA too.
False

Now give it for TCAAAACA too.
True

Now give it for AACAAAAT too.
False
